# Tested on: HUVEC/MSC spheroids viability
# TEST_DESCRIPTION: Human HUVEC/MSC cell line growth inhibition [KRAS2];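 also: percent of DMSO vehicle control luminescence so 100% = untreated viability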
# MEASUREMENT_CONTEXT: second compound 10 µM; first compound 3.16 µM; stronger effect = lower value
# From the text: Multicellular complex tumor spheroid response to RAS pathway inhibitors in combination with a targeted agents in patient-derived cell lines with oncogenic KRAS variants from multiple cancer types A high-throughput screen of multi-cell type tumor spheroids was designed to identify active combinations of targeted small molecules and KRAS pathway inhibitors. […] Compounds. […] If the clinical Cmax for an agent had not been determined, the highest concentration tested was 10 microM. […]

{"COMPOUND": "COC(=O)c1ccc2c(C(=Nc3ccc(N(C)C(=O)CN4CCN(C)CC4)cc3)c3ccccc3)c(O)[nH]c2c1 + COc1cc2nc(C)nc(NC(C)c3cc(N)cc(C(F)(F)F)c3)c2cc1OC1CCOC1", "UNIT_ABBREVIATION": "%", "viability, T/C": 0.52}
{"COMPOUND": "O=C(c1cc(Cc2n[nH]c(=O)c3ccccc23)ccc1F)N1CCN(C(=O)C2CC2)CC1 + COc1cc2nc(C)nc(NC(C)c3cc(N)cc(C(F)(F)F)c3)c2cc1OC1CCOC1", "UNIT_ABBREVIATION": "%", "viability, T/C": 77.2}
{"COMPOUND": "O=C(c1cc(Cc2n[nH]c(=O)c3ccccc23)ccc1F)N1CCN(C(=O)C2CC2)CC1 + CNCc1ccccc1-c1csc(C(C)Nc2nc(C)nc3cc(OC)c(OC)cc23)c1", "UNIT_ABBREVIATION": "%", "viability, T/C": 0.39}
